Listing of entries alongside the reported melting point.

Would you please look over these solved cases?
molecule: Nc1ccc(NC2CCCCC2)cc1
result value: 59 to 61 °C
--
molecule: CCCOc1ccc(S)cc1C(N)=O
result value: 108 to 111 °C
--
molecule: CCOC(=O)CC1CN=C(c2cc3c(C)ccc(N(C)S(=O)(=O)c4cccs4)c3[nH]2)S1 (stereo unspecified)
result value: 109 to 110 °C
--
molecule: CC(=O)Nc1c([N+](=O)[O-])cc(C)c(OC(F)F)c1C
result value: 184 to 185 °C
--
molecule: OC1CSC(Oc2ccc(-c3ccco3)nc2)C(O)C1O (stereo unspecified)
result value: 146 °C

// next item, melting point requested
Which melting point is reported for this molecule? CCCCS(=O)(=O)C1(CCCCN2CCC(N3Cc4ccccc4C3=O)CC2)c2ccccc2-c2ccccc21
130 to 132 °C
